Known IC50 of a selection of molecules
- tested-target: RBL-1 Cell Cyclooxygenase (Rattus norvegicus)
- Construct: the supernatant was saved as the source of enzymes; endogenous in cells
- Sequence (Q63921 27-602): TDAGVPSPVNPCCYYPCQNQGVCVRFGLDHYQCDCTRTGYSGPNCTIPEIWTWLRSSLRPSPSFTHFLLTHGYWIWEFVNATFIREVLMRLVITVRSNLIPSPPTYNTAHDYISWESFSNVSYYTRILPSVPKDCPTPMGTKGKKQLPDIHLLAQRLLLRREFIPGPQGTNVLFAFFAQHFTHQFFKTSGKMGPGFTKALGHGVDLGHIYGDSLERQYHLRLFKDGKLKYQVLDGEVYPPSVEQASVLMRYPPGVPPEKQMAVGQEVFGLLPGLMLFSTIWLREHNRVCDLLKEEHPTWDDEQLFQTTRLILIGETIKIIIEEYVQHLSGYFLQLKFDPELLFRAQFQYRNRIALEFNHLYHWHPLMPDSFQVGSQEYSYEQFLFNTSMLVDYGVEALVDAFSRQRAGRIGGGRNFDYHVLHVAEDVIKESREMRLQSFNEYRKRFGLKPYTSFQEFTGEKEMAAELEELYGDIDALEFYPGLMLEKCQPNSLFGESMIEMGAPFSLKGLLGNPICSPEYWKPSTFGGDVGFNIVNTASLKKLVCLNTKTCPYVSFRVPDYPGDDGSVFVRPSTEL
- procedure-details: Procedure II: cyclooxygenase inhibition in disrupted RBL-1 cells (supernatant as enzyme source)
- assay-context: read-out: IC50 CO (Procedure II)
Respond with the bare value in µM.

Before answering, review these 4 worked examples.
>>> reported_result("COc1ccc(-n2nc(COC(=O)N(O)C(C)C)cc2-c2ccc(Cl)cc2)cc1 [1-C]")
1.1
>>> reported_result("COc1ccc(-n2nc(CCCOC(=O)N(C)O)cc2-c2ccc(Cl)cc2)cc1 [3-B]")
6.34
>>> reported_result("COc1ccc(-n2nc(COC(=O)NO)c(Cl)c2-c2ccc(Cl)cc2)cc1 [1-G]")
0.95
>>> reported_result("COc1ccc(-n2nc(COC(=O)N(O)C(C)C)c(Cl)c2-c2ccc(C)cc2)cc1 [1-R]")
3.8

What IC50 value was documented for this molecule, COc1ccc(-n2nc(COC(=O)NO)c(Br)c2-c2ccc(C)cc2)cc1 [1-M] ?
1.46
